# ASSAY_SYSTEM: T1, human GPC3-His protein (human, UniProt P51654 25-559, limits assumed)
# T1 construct: also called human GPC3 protein; not shown: His tag
# ASSAY_EXPLANATION: SPR, antibody captured on Protein A chip, human GPC3-His injected, 1:1 Langmuir model;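 also: flow cell at 25 °C, antigen injected for 240 s at five twofold dilutions starting at 200 nM, dissociation followed up to 600 s, double-referenced sensorgrams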
Lab note: compare koff against 0.0005 s⁻¹. Equal or greater, write condition met. Smaller, write condition not met.

Solved cases below.
Does koff meet or surpass 0.0005 s⁻¹ for hAb003LH1L1b (antibody, human IgG1, V domains shown, Humanized F2.154.1) VH: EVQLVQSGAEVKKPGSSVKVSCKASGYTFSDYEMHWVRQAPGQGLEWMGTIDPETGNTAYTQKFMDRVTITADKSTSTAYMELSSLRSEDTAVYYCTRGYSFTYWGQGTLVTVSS VL: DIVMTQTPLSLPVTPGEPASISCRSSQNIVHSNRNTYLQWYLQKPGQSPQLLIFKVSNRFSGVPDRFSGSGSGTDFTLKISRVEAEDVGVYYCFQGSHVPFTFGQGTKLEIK ?
condition not met

Determine whether measured koff meets or exceeds 0.0005 s⁻¹ for hAb006LH2L1 (antibody, human IgG1, V domains shown, Humanized F3.38.7) VH: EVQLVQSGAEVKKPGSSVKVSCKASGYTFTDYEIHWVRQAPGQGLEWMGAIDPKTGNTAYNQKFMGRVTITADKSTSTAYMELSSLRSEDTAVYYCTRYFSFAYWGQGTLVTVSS VL: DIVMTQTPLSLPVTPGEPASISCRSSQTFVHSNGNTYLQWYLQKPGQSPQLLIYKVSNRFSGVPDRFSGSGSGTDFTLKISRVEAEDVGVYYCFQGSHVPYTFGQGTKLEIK
condition met

Is reported koff greater than or equal to 0.0005 s⁻¹ here: hAb001H1L1b (antibody, human IgG1, V domains shown, Humanized F2.169.2) VH: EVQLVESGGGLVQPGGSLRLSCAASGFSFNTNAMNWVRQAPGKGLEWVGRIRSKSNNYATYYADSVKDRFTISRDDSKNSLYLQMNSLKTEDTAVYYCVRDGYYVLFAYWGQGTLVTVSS VL: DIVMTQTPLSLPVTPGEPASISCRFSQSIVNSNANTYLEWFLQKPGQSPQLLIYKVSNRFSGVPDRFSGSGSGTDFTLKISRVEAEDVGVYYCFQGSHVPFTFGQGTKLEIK
condition met

Does the binder hAb007LH1L1c (antibody, human IgG1, V domains shown, Humanized F3.81.19) VH: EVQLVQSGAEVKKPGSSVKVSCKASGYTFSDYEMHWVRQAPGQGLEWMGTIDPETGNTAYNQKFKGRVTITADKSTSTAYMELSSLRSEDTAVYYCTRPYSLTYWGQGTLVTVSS VL: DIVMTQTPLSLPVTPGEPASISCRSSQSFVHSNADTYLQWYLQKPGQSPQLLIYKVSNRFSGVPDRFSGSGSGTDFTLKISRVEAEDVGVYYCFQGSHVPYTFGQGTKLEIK have recorded koff that is 0.0005 s⁻¹ or more?
condition not met

Please indicate if the recorded koff for hAb003LH1L1 (antibody, human IgG1, V domains shown, Humanized F2.154.1) VH: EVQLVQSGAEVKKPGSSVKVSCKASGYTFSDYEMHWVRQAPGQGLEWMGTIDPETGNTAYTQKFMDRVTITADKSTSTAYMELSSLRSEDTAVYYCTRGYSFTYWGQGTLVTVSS VL: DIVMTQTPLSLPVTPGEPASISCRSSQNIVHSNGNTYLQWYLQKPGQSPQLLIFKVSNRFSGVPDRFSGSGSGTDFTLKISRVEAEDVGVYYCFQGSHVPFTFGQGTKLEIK meets or exceeds 0.0005 s⁻¹.
condition not met

Test whether the binder hAb007LH2L1b (antibody, human IgG1, V domains shown, Humanized F3.81.19) VH: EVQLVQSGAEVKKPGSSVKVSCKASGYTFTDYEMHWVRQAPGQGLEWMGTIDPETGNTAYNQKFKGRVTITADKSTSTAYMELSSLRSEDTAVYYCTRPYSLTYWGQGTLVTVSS VL: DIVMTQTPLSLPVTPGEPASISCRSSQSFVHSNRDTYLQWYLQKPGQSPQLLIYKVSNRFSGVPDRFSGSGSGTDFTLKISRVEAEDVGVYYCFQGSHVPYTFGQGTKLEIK records koff of 0.0005 s⁻¹ or higher.
condition not met

Has hAb001H2L1b (antibody, human IgG1, V domains shown, Humanized F2.169.2) VH: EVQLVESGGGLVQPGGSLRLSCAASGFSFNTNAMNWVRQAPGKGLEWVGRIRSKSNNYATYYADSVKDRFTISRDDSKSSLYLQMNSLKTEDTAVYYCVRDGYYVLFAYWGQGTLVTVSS VL: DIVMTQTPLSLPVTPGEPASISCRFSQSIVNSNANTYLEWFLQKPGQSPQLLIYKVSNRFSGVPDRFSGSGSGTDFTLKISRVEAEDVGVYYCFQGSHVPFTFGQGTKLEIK a recorded koff greater than or equal to 0.0005 s⁻¹?
condition met

# bool: koff of hAb007LH1L1b (antibody, human IgG1, V domains shown, Humanized F3.81.19) VH: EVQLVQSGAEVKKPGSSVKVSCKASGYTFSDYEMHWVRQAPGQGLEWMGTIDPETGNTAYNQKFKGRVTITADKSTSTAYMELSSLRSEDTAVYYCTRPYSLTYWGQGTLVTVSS VL: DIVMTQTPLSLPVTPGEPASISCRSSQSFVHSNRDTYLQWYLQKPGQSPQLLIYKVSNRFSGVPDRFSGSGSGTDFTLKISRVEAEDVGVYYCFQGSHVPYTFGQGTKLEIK >= 0.0005 s⁻¹
condition not met

In the following, a different binder is considered.
Item hAb001H1aL1 (antibody, human IgG1, V domains shown, Humanized F2.169.2) VH: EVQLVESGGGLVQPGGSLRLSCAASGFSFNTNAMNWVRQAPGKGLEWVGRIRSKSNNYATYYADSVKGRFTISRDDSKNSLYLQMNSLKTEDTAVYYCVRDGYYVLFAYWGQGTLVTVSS VL: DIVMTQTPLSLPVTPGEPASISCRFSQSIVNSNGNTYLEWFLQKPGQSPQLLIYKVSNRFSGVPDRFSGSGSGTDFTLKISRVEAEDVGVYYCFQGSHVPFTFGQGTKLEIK with koff of 0.0005 s⁻¹ or above?
condition met
